tested on: PC-3 prostate; assay: NCI tumour cell line growth inhibition, 48 h; in the data active = GI50 below about 0.43 µM; inactive = the rest
Outcomes: active, inactive

{"columns": ["Compound", "Assigned Category"],
 "data": [
  ["NC(N)=N/N=C/c1c(-c2cc(Cl)sc2Cl)nc2sccn12", "inactive"],
  ["C[C@H](Nc1ncnc2nc[nH]c12)c1cc2ccc(F)cc2nc1-c1ccccn1", "inactive"],
  ["CC(C)(C)C(=O)OCOP(=O)(OCOC(=O)C(C)(C)C)C1CC(O)N(O)C1=O (configuration not stated)", "inactive"],
  ["COc1ccc2c(c1)[n+](=O)c(C(=O)c1ccco1)c(C(F)(F)F)n2[O-]", "inactive"],
  ["COc1ccc2c(c1)[nH]c(=O)c1c3cc(OC)ccc3cn21", "active"],
  ["O=C1c2nsnc2C(=O)c2c(F)c(F)c(F)c(F)c21", "inactive"],
  ["O=C(c1ccccc1)c1ccc(Oc2ccc([N+](=O)[O-])cc2[N+](=O)[O-])cc1", "inactive"]
]}

From: PubChem BioAssay (NCI)
